System: EMC-BAC-2
Assay: relative viability (nuclei count vs DMSO), 5 days (fraction); higher = more cells survive
Settings: first compound 0.08 µM
parameter: relative viability

1) O=c1[nH]c2ccccc2n1C1CCN(CCCC(c2ccc(F)cc2)c2ccc(F)cc2)CC1 [Pimozide] + C[C@@H](Oc1cc(-c2cnn(C3CCNCC3)c2)cnc1N)c1c(Cl)ccc(F)c1Cl [Crizotinib] (partner 1 µM); 0.752
2) O=c1[nH]c2ccccc2n1C1CCN(CCCC(c2ccc(F)cc2)c2ccc(F)cc2)CC1 [Pimozide] + C[C@]1(O)C[C@@H](c2nc(-c3ccc4ccc(-c5ccccc5)nc4c3)c3c(N)nccn32)C1 [Linsitinib] (partner 1 µM); 0.768
3) O=c1[nH]c2ccccc2n1C1CCN(CCCC(c2ccc(F)cc2)c2ccc(F)cc2)CC1 [Pimozide] + Nc1nc2[nH]cc(CCc3ccc(C(=O)N[C@@H](CCC(=O)O)C(=O)O)cc3)c2c(=O)[nH]1 [Pemetrexed] (partner 0.2 µM); 0.464
4) Cc1cnc(-c2cnc(NCCNc3ccc(C#N)cn3)nc2-c2ccc(Cl)cc2Cl)[nH]1 + Nc1ncn([C@H]2C[C@H](O)[C@@H](CO)O2)c(=O)n1 [Decitabine] (partner 2 µM); 1.15
5) O=c1[nH]c2ccccc2n1C1CCN(CCCC(c2ccc(F)cc2)c2ccc(F)cc2)CC1 [Pimozide] + Nc1ncn([C@H]2C[C@H](O)[C@@H](CO)O2)c(=O)n1 [Decitabine] (partner 2 µM); 0.956

Please find the next compound below.
Input: Output measured relative viability for this item: O=c1[nH]c2ccccc2n1C1CCN(CCCC(c2ccc(F)cc2)c2ccc(F)cc2)CC1 [Pimozide] + O=C(CCCCCCC(=O)Nc1ccccc1)NO [Vorinostat] (partner 1 µM)
Output: 0.433
